Tested on: FXR:RXRa (NR concentration 270 nM, RXRa partner concentration 90 nM)
protocol.description: PBM binding z-score (relative to random genomic background probes); higher = stronger binding; sequences stand for … in GC…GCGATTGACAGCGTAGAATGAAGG
Quick rule: PBM binding z-score of at least 4 means 1, below that means -1.

biosequence	group
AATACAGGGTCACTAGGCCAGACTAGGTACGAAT	1
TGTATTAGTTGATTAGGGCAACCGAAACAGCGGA	-1
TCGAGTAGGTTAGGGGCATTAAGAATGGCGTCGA	-1
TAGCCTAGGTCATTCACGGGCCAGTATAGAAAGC	1
TCTGCTAGGTCTGTTGGTCAGCTAACGAGCTGCC	-1
ATTGAAAGGTCGAGGTGAGTATAGAGAAAGGGAA	1
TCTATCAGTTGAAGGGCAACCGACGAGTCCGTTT	-1
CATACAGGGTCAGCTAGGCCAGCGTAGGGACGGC	1

Input: Kindly determine if PBM binding z-score recorded for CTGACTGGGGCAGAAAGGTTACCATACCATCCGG is above or exactly 4.
Output: -1

Input: Does PBM binding z-score meet or surpass 4 for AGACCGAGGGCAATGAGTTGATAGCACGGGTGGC ?
Output: -1

Input: # bool: PBM binding z-score of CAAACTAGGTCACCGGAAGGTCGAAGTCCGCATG >= 4
Output: 1

Input: Quick check: does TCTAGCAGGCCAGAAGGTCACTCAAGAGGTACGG have PBM binding z-score greater than or equal to 4?
Output: -1

====

Tested on: LXRb homodimer (NR concentration 270 nM)
protocol.description: PBM binding z-score (relative to random genomic background probes); higher = stronger binding; sequences stand for … in GC…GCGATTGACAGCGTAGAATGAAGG
So basically every entry gets a class from its PBM binding z-score, ranges being low value: < -0.3; medium value: ≥ -0.3 and < 0.7; high value: ≥ 0.7

Here's what some known entries look like.
biosequence	measurement.target	group
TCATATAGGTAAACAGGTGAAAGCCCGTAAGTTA	LXRb homodimer (NR concentration 270 nM)	medium value
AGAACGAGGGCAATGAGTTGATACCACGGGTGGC	LXRb homodimer (NR concentration 270 nM)	medium value
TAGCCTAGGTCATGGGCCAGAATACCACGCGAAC	LXRb homodimer (NR concentration 270 nM)	medium value
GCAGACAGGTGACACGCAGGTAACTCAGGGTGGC	LXRb homodimer (NR concentration 270 nM)	low value
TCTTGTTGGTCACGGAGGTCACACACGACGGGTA	LXRb homodimer (NR concentration 270 nM)	high value
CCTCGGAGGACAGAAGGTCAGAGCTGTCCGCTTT	LXRb homodimer (NR concentration 270 nM)	low value

Input: State the band of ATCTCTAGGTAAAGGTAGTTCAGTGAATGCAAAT
Output: high value

Input: Each sequence maps to one class by PBM binding z-score. Which class for TCATATAGGTAATTCAGGTGAAAGTCGGCATCTA ?
Output: medium value

Input: Pick a category. Item: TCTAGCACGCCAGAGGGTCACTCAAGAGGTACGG
Output: low value

Input: Tag the class for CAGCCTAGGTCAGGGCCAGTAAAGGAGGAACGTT
Output: low value

Input: Categorize the following entry: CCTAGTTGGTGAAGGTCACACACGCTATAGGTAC
Output: high value

Input: Assign a bin to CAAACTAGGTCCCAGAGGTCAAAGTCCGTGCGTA
Output: high value

Input: Band for the recorded PBM binding z-score of TTACCAAGGTGTAAGGTCGTTGATGCACGCCTTG ?
Output: low value

====

Tested on: LXRb:RXRa (NR concentration 270 nM, RXRa partner concentration 90 nM)
protocol.description: PBM binding z-score (relative to random genomic background probes); higher = stronger binding; sequences stand for … in GC…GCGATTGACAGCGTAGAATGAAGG
Label scheme for PBM binding z-score: lower than 2 is no, 2 and above is yes.

Example cases with answers are listed next.
biosequence	group
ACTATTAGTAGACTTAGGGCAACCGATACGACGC	no
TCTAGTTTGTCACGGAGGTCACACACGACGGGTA	yes
AGAATGAGGTTACCAAAGATCAGGGATACGCTTG	yes
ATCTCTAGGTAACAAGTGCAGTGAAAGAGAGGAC	no
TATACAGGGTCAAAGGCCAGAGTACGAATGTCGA	yes
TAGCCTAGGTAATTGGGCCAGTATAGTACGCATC	no

Input: Form field: PBM binding z-score at least 2? Entry: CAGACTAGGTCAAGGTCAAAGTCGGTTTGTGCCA
Output: yes

Input: Quick check: does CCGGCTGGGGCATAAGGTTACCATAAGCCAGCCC have PBM binding z-score greater than or equal to 2?
Output: no

Input: Determine whether measured PBM binding z-score meets or exceeds 2 for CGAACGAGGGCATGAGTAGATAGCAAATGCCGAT
Output: no

====

Tested on: PXR homodimer (NR concentration 270 nM)
protocol.description: PBM binding z-score (relative to random genomic background probes); higher = stronger binding; sequences stand for … in GC…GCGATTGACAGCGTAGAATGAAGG
Class assignment keyed on PBM binding z-score, ranges bin 1: < -0.2; bin 2: ≥ -0.2 and < 0.5; bin 3: ≥ 0.5

biosequence	group
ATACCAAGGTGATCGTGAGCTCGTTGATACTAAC	bin 2
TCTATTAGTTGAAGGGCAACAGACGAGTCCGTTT	bin 3
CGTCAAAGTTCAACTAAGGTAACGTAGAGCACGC	bin 3
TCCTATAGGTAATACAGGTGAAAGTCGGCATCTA	bin 2

Input: Category of AGAATGAGGTTATTAAGATCGGGGAATTGCGGTC :
Output: bin 2

Input: Field: class (PBM binding z-score) — entry: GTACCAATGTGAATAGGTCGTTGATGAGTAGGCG
Output: bin 1

Input: Please let me know in which category the item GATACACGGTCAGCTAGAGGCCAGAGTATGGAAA belongs.
Output: bin 1

Input: # classify by PBM binding z-score band: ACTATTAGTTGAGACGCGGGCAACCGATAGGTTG
Output: bin 1

Input: Could you place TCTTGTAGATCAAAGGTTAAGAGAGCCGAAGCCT in its proper category? Many thanks.
Output: bin 2

Input: Bin this entry: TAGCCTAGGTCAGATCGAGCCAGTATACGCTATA
Output: bin 1

Input: Form: Item = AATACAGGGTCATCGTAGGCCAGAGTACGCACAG ; Class = ?
Output: bin 2

Input: Categorize the following entry: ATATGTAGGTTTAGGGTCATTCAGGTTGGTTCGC
Output: bin 3

Input: Quick check: band for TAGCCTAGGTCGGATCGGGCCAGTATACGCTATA
Output: bin 1

Input: Using the reported PBM binding z-score, which band applies to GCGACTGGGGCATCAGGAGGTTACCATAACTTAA ?
Output: bin 2

Input: Lab note: which band did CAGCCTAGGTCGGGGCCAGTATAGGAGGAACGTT land in?
Output: bin 1

Input: Category of CCTAGCAGGCCAATCTGGGTCAATCAAGGCTTGA :
Output: bin 1

Input: Hello team, could you let me know which band the following sequence falls into: TATACAGGGTCAAAGGCCTGAGTACGAATGTCGA
Output: bin 2

Input: Classify this sequence: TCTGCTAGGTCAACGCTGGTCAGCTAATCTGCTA
Output: bin 1

====

System: THRa homodimer (NR concentration 90 nM)
protocol.description: PBM binding z-score (relative to random genomic background probes); higher = stronger binding; sequences stand for … in GC…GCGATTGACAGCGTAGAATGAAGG
Would you mind labelling by PBM binding z-score? At or over 0.4 is satisfied, under is not satisfied.

Worked examples, 6 sequences total:
biosequence	group
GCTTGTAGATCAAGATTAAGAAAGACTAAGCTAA	not satisfied
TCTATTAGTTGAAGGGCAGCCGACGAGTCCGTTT	not satisfied
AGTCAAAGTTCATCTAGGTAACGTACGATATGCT	satisfied
TCTTGTAGATTAGCAGGTTAAGAAAGCTGGCCAA	not satisfied
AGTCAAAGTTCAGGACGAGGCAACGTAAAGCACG	satisfied
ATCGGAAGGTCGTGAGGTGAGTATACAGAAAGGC	satisfied

Input: Could you tell me if the measured PBM binding z-score of TCTGCTAGGTCAACGACGGTCAGCTAATCTGCTA reaches 0.4 or more?
Output: satisfied

Input: Could you tell me if the measured PBM binding z-score of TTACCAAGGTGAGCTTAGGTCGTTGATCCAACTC reaches 0.4 or more?
Output: satisfied

Input: Reported PBM binding z-score at or above 0.4? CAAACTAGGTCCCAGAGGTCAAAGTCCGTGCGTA
Output: satisfied

====

Test system: THRa homodimer (NR concentration 90 nM)
protocol.description: PBM binding z-score (relative to random genomic background probes); higher = stronger binding; sequences stand for … in GC…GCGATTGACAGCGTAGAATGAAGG
recorded.metric: PBM binding z-score
Reply with just the number.

Some entries whose results are on file:
biosequence	measured.value
TCGAGGAGGTTACCAATGGGGCATTCAGCTTTCT	-0.297
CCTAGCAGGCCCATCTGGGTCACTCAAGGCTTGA	0.0226
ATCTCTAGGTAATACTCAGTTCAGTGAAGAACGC	1.33
TGAATGAGGTTAAAGATCAAGGAACGTGGCGTCG	0.289
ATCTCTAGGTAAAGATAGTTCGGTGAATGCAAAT	0.197

Note: attention shifts to another entry.
Input: Report PBM binding z-score for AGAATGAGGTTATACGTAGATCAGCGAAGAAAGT tested on THRa homodimer (NR concentration 90 nM).
Output: 0.0645
